# TGT: PTK6 (human) (UniProt Q13882)
# Sequence (Q13882 whole entry, looked up): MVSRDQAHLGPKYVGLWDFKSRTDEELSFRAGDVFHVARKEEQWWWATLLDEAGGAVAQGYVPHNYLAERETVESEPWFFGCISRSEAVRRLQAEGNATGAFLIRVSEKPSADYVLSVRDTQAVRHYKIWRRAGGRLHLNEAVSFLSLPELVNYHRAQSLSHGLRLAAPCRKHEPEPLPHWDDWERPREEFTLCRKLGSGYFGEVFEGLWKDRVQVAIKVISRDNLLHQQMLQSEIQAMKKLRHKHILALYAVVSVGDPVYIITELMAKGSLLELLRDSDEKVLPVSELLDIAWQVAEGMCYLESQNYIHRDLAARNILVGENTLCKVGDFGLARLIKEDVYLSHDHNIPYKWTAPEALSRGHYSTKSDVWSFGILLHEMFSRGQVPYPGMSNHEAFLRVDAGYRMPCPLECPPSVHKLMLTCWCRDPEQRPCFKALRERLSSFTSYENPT
# EXPERIMENT_DESCRIPTION: radiometric filter-binding kinase assay, Kinase HotSpot
# CONDITION_INFO: compound 0.5 µM; ATP 10 µM
Please assign -1 whenever residual activity is at or above 80%, and 1 whenever it is below.

| MOLECULE | TGT | ASSIGNED_LABEL |
| --- | --- | --- |
| CC(=O)c1ccc(N2CCOCC2)cc1O | PTK6 (human) (UniProt Q13882) | -1 |
| N#CC(C#N)=C(N)/C(C#N)=C/c1ccc(O)cc1 | PTK6 (human) (UniProt Q13882) | -1 |
| O=C1Nc2ccc(Cl)cc2/C1=C/c1cc(Cl)c(O)c(Cl)c1 | PTK6 (human) (UniProt Q13882) | 1 |
| O=C1NC(=O)/C(=C/c2ccc3c(c2)OC(F)(F)O3)S1 | PTK6 (human) (UniProt Q13882) | -1 |
| CO[C@H]1CC2CC[C@@H](C)[C@@](O)(O2)C(=O)C(=O)N2CCCC[C@H]2C(=O)OC([C@H](C)C[C@@H]2CC[C@@H](O)[C@H](OC)C2)CC(=O)[C@H](C)/C=C(\C)[C@@H](O)[C@@H](OC)C(=O)[C@H](C)C[C@H](C)/C=C/C=C/C=C/1C (some centres undefined) | PTK6 (human) (UniProt Q13882) | -1 |
| Nc1ccc2ncnc(NCCc3ccc(Oc4ccccc4)cc3)c2c1 | PTK6 (human) (UniProt Q13882) | -1 |
| CCN(CC)C(=O)c1ccc(Nc2nc(OCC3CCCCC3)c3nc[nH]c3n2)cc1 | PTK6 (human) (UniProt Q13882) | 1 |
| CCOC(=O)c1c(C)[nH]c(/C=C2\C(=O)Nc3ccccc32)c1C | PTK6 (human) (UniProt Q13882) | -1 |
